Test: SK-BR-3 cell growth inhibitors, pilot screen, 24 h, human (AID 572);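 further: compound exposure lasted between 18 and 24 h rather than exactly 24 h; 100% = carrier-treated control wells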
Details: SK-BR-3 viability, CellTiter-Glo luminescence, at 10 µM, active compounds read low
This section presents molecules with their documented viability values.
REPORTED_ENDPOINT: viability (%)

# MOLECULE, READOUT_UNIT, NUMERIC_RESULT
measured = [
    ("CCCS(=O)(=O)N1CCCC(C(=O)NC2CCCC(C)C2C)C1 (centres undefined)", "%", 101),
    ("CCN(CC)CCCNC1CCS(=O)(=O)C1 (centres undefined)", "%", 126),
    ("CCCC1(C(=O)OC)NC(c2cc(OC)c(OC)c(OC)c2)C2C(=O)N(CC)C(=O)C21 (centres undefined)", "%", 67),
    ("Fc1ccc(-c2cnc[nH]2)cc1", "%", 98.5),
    ("CC1CCC(NC(=O)C2CCN(c3cnccn3)CC2)CC1 (centres undefined)", "%", 96),
    ("COc1cccc2c(=O)cc(C)n(CC(=O)Nc3ccc(C)c(C)c3)c12", "%", 105),
    ("O=C(C1CCCN(S(=O)(=O)c2cccc3nonc23)C1)N1CCC(Cc2ccccc2)CC1 (centres undefined)", "%", 103),
    ("CCOc1cc(NC(=O)c2ccco2)c(OCC)cc1NC(=O)CCc1ccc(OC)cc1", "%", 89),
    ("Cc1nc(CCNS(=O)(=O)c2cccs2)cs1", "%", 86),
]
